Assay: Passage / apparent permeability across hBLEC monolayer
Assay type: in vitro ADME, human
Details: human, pH 7.4, apparent coefficient permeability (Papp), 10 μM, 180 min after transport across hBLECs
READOUT: Papp at 180 min, 10 μM

Query: Provide measured Papp at 180 min, 10 μM value, entry: "CC/C=C\C/C=C\C/C=C\C/C=C\C/C=C\C/C=C\CCC(=O)O"
Response: 26 ×10⁻⁶ cm/s
